Entries and their inhibition at 20 µM values follow.
tested on: MCF-7 (breast cancer) cell line; test: SRB in-vitro cytotoxicity assay, MCF-7; conditions: Homo sapiens, MCF7, 48 h, read-out: Cytotoxicity (in vitro cell inhibition) MCF-7
property-measured: inhibition at 20 µM

{"compound": "C=C(C)[C@@H]1CCC(C)=C[C@H]1c1c(O)cc(CCCCC)c2c1OCN(Cc1ccccc1)C2", "reading": "< 50%"}
{"compound": "C=C(C)[C@@H]1CCC(C)=C[C@H]1c1c(O)cc(CCCCC)c2c1OCN(C1CCC1)C2", "reading": "> 70%"}
{"compound": "CC(=O)O[C@H]1C(=O)[C@@]2(C)[C@H]([C@H](OC(=O)c3ccccc3)[C@]3(O)C[C@H](OC(=O)[C@H](O)[C@@H](NC(=O)c4ccccc4)c4ccccc4)C(C)=C1C3(C)C)[C@]1(OC(C)=O)CO[C@@H]1C[C@@H]2O [Paclitaxel, paclitaxel, reference compound]", "reading": "> 70%"}
{"compound": "C=C(C)[C@@H]1CCC(C)=C[C@H]1c1c(O)cc(CCCCC)c2c1OCN(C1CCCCCC1)C2", "reading": "> 70%"}
{"compound": "C=C(C)[C@@H]1CCC(C)=C[C@H]1c1c(O)cc(CCCCC)c2c1OCN(c1ccccc1F)C2", "reading": "< 50%"}
{"compound": "C=C(C)[C@@H]1CCC(C)=C[C@H]1c1c(O)cc(CCCCC)c2c1OCN(CCC)C2", "reading": "> 70%"}
{"compound": "C=C(C)[C@@H]1CCC(C)=C[C@H]1c1c(O)cc(CCCCC)c2c1OCN(c1ccc(C(C)C)cc1)C2", "reading": "< 50%"}
{"compound": "C=C(C)[C@@H]1CCC(C)=C[C@H]1c1c(O)cc(CCCCC)c2c1OCN(CCCN1CCOCC1)C2", "reading": "> 70%"}
{"compound": "C=C(C)[C@@H]1CCC(C)=C[C@H]1c1c(O)cc(CCCCC)c2c1OCN(CC)C2", "reading": "> 70%"}
{"compound": "C=C(C)[C@@H]1CCC(C)=C[C@H]1c1c(O)cc(CCCCC)cc1O", "reading": "50 to 70%"}
{"compound": "C=C(C)[C@@H]1CCC(C)=C[C@H]1c1c(O)cc(CCCCC)c2c1OCN(C1CC1)C2", "reading": "50 to 70%"}
{"compound": "C=C(C)[C@@H]1CCC(C)=C[C@H]1c1c(O)cc(CCCCC)c2c1OCN(c1ccccc1)C2", "reading": "< 50%"}
{"compound": "C=C(C)[C@@H]1CCC(C)=C[C@H]1c1c(O)cc(CCCCC)c2c1OCN(c1cnc3ccccc3c1)C2", "reading": "< 50%"}
{"compound": "C=C(C)[C@@H]1CCC(C)=C[C@H]1c1c(O)cc(CCCCC)c2c1OCN(c1ccc(OC(F)(F)F)cc1)C2", "reading": "< 50%"}
{"compound": "C=C(C)[C@@H]1CCC(C)=C[C@H]1c1c(O)cc(CCCCC)c2c1OCN(CCCC)C2", "reading": "> 70%"}
{"compound": "C=C(C)[C@@H]1CCC(C)=C[C@H]1c1c(O)cc(CCCCC)c2c1OCN(CCCCCC)C2", "reading": "> 70%"}
{"compound": "C=C(C)[C@@H]1CCC(C)=C[C@H]1c1c(O)cc(CCCCC)c2c1OCN(C)C2", "reading": "> 70%"}

All figures here come from patent US20260216216A1.
